Entry source: patent US20260098072A1

Recorded measurements of IC50 (cAMP by HTRF, antagonist dose-response), one per entry
Target: human melanocortin 3 receptor (MC3R) (human, UniProt P41968 1-323)
Sequence (P41968 whole entry): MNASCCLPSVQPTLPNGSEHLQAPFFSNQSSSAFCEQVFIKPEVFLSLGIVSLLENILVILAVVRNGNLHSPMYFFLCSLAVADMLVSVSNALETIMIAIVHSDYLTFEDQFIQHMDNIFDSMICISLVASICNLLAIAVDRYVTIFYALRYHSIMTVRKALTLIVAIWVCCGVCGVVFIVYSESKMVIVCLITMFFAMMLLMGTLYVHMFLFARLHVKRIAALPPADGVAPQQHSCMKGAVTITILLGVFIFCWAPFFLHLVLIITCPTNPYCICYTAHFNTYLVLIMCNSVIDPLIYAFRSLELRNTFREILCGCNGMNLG
Experiment: cell-based or functional assay
Positions of bridges follow the written chain, without caps; N, C: chain ends. Non-standard residues stand in square brackets, D forms with d. d2Nal = N[C@H](Cc1ccc2ccccc2c1)C(=O)O; Hyp = O=C(O)[C@@H]1C[C@@H](O)CN1; Nle = CCCC[C@H](N)C(=O)O
# number only, unit µM dropped from output

For the binder Ac-[Nle]D[Hyp][d2Nal]RWK[dV][dP]-NH2 (lactam 2-7; SMILES CCCC[C@H](NC(C)=O)C(=O)N[C@H]1CC(=O)NCCCC[C@@H](C(=O)N[C@@H](C(=O)N2CCC[C@@H]2C(N)=O)C(C)C)NC(=O)[C@H](Cc2c[nH]c3ccccc23)NC(=O)[C@H](CCCNC(=N)N)NC(=O)[C@@H](Cc2ccc3ccccc3c2)NC(=O)[C@@H]2C[C@@H](O)CN2C1=O) [D3] , report IC50 (cAMP by HTRF, antagonist dose-response). 0.087

For the binder Ac-[Nle]DPH[d2Nal]RWK[dV][dP]-NH2 (lactam 2-8; SMILES CCCC[C@H](NC(C)=O)C(=O)N[C@H]1CC(=O)NCCCC[C@@H](C(=O)N[C@@H](C(=O)N2CCC[C@@H]2C(N)=O)C(C)C)NC(=O)[C@H](Cc2c[nH]c3ccccc23)NC(=O)[C@H](CCCNC(=N)N)NC(=O)[C@@H](Cc2ccc3ccccc3c2)NC(=O)[C@H](Cc2c[nH]cn2)NC(=O)[C@@H]2CCCN2C1=O) [D1] , report IC50 (cAMP by HTRF, antagonist dose-response). 5.81

For the binder Ac-[Nle]DP[d2Nal]RWK[dP][dV]-NH2 (lactam 2-7; SMILES CCCC[C@H](NC(C)=O)C(=O)N[C@H]1CC(=O)NCCCC[C@@H](C(=O)N2CCC[C@@H]2C(=O)N[C@@H](C(N)=O)C(C)C)NC(=O)[C@H](Cc2c[nH]c3ccccc23)NC(=O)[C@H](CCCNC(=N)N)NC(=O)[C@@H](Cc2ccc3ccccc3c2)NC(=O)[C@@H]2CCCN2C1=O) [TCMCB02] , report IC50 (cAMP by HTRF, antagonist dose-response). 1.36
